Recorded values, source patent US8168667B2.

Molecular target: human androgen receptor (hAR) (Homo sapiens, UniProt P10275)
Sequence (P10275 1-920): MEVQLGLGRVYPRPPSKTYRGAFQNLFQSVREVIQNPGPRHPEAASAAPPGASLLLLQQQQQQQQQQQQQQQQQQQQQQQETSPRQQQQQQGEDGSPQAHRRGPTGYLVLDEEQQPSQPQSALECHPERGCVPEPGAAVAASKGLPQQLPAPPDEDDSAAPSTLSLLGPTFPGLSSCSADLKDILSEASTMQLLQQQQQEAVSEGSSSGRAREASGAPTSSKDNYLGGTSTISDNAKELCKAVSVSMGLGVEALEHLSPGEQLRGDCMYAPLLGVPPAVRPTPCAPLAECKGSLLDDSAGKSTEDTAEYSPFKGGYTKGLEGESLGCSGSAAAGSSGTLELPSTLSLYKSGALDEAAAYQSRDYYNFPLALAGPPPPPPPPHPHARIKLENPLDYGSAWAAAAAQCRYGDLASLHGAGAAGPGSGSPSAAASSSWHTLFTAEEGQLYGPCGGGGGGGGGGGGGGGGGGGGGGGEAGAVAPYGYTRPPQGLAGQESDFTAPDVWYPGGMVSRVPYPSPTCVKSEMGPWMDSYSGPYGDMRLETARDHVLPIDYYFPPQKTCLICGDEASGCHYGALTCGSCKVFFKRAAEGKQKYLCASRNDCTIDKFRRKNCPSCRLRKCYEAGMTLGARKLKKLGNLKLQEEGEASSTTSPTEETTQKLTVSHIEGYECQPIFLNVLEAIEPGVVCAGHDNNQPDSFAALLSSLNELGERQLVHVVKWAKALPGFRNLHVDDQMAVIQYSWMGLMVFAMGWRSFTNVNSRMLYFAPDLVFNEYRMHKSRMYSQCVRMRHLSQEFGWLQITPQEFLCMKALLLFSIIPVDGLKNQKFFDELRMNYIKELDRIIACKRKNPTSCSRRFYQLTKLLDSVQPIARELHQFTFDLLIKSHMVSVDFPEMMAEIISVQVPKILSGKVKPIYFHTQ
Experiment: Functional response test: hAR transactivation (luciferase reporter) in HALP2 cells
Type: cell-based
Details: antagonism; concentration which increases the EC50 of the DHT by a factor of 2, Schild regression; HALP2 cells
Listed below: KSchild (nM) potency values for each entry.

>  <compound>
CN1C(=O)N(c2ccc(F)c(Cl)c2)C(=O)C1c1ccc(O)cc1 (stereo not shown)

>  <KSchild (nM) potency>
42.43

$$$$
>  <compound>
O=C1C(c2ccc(O)cc2)N(Cc2ccc3c(c2)OCO3)C(=O)N1c1cccc(C(F)(F)F)c1 (stereo not shown)

>  <KSchild (nM) potency>
200

$$$$
>  <compound>
CC1(c2ccc(O)cc2)C(=O)N(c2ccc(C#N)c(C(F)(F)F)c2)C(=O)N1CS(C)(=O)=O (stereo not shown)

>  <KSchild (nM) potency>
200

$$$$
>  <compound>
CC1(c2ccc(O)cc2)C(=O)N(c2ccc(Cl)c(Cl)c2)C(=S)N1CCC#N (stereo not shown)

>  <KSchild (nM) potency>
4.9

$$$$
>  <compound>
CCCN1C(=O)N(c2cccc(C(F)(F)F)c2)C(=O)C1c1ccc(O)cc1 (stereo not shown)

>  <KSchild (nM) potency>
69.28

$$$$
>  <compound>
O=C1C(c2ccc(O)cc2)N(CCO)C(=O)N1c1ccc(Cl)c(Cl)c1 (stereo not shown)

>  <KSchild (nM) potency>
28.28

$$$$
>  <compound>
N#CCCN1C(=O)N(c2ccc(F)c(F)c2)C(=O)C1c1ccc(O)cc1 (stereo not shown)

>  <KSchild (nM) potency>
89.44

$$$$
>  <compound>
N#CCCN1C(=O)N(c2cccc(C(F)(F)F)c2)C(=O)C1c1ccc(O)cc1 (stereo not shown)

>  <KSchild (nM) potency>
244.95

$$$$
>  <compound>
CCOCCCN1C(=O)N(c2cccc(C(F)(F)F)c2)C(=O)C1c1ccc(O)cc1 (stereo not shown)

>  <KSchild (nM) potency>
200

$$$$
>  <compound>
CN1C(=O)N(c2ccc(F)c(C(F)(F)F)c2)C(=O)C1c1ccc(O)cc1 (stereo not shown)

>  <KSchild (nM) potency>
48.99

$$$$
>  <compound>
O=C1C(c2ccc(O)cc2)N(Cc2ccc3c(c2)OCO3)C(=O)N1c1ccc(F)c(Cl)c1 (stereo not shown)

>  <KSchild (nM) potency>
48.99

$$$$
>  <compound>
N#CCN1C(=O)N(c2cccc(C(F)(F)F)c2)C(=O)C1c1ccc(O)cc1 (stereo not shown)

>  <KSchild (nM) potency>
692.82

$$$$
>  <compound>
C=CCN1C(=O)N(c2ccc(Cl)c(Cl)c2)C(=O)C1c1ccc(O)cc1 (stereo not shown)

>  <KSchild (nM) potency>
6.84

$$$$
>  <compound>
CCCN1C(=O)N(c2ccc([N+](=O)[O-])c(C(F)(F)F)c2)C(=O)C1c1ccc(O)cc1 (stereo not shown)

>  <KSchild (nM) potency>
200

$$$$
>  <compound>
C#CCN1C(=O)N(c2ccc(F)c(Cl)c2)C(=O)C1c1ccc(O)cc1 (stereo not shown)

>  <KSchild (nM) potency>
20

$$$$
>  <compound>
CN(C)CCN1C(=O)N(c2ccc(F)c(F)c2)C(=O)C1c1ccc(O)cc1 (stereo not shown)

>  <KSchild (nM) potency>
2000

$$$$
>  <compound>
C=CCN1C(=O)N(c2cccc(C(F)(F)F)c2)C(=O)C1c1ccc(O)cc1 (stereo not shown)

>  <KSchild (nM) potency>
26.21

$$$$
>  <compound>
CC1(c2ccc(O)cc2)C(=O)N(c2ccc(Cl)c(Cl)c2)C(=O)N1CCCO (stereo not shown)

>  <KSchild (nM) potency>
300

$$$$
>  <compound>
CCOC(=O)CCN1C(=O)N(c2ccc(F)c(C(F)(F)F)c2)C(=O)C1c1ccc(O)cc1 (stereo not shown)

>  <KSchild (nM) potency>
77.46

$$$$
>  <compound>
C=CCN1C(=O)N(c2ccc(F)c(C(F)(F)F)c2)C(=O)C1c1ccc(O)cc1 (stereo not shown)

>  <KSchild (nM) potency>
34.64

$$$$
>  <compound>
CCOC(=O)CCN1C(=O)N(c2cccc(C(F)(F)F)c2)C(=O)C1c1ccc(O)cc1 (stereo not shown)

>  <KSchild (nM) potency>
80

$$$$
>  <compound>
CCOCCCN1C(=O)N(c2ccc(F)c(F)c2)C(=O)C1c1ccc(O)cc1 (stereo not shown)

>  <KSchild (nM) potency>
300

$$$$
>  <compound>
Cc1cc([N+](=O)[O-])ccc1N1C(=O)N(C)C(C)(c2ccc(O)cc2)C1=O (stereo not shown)

>  <KSchild (nM) potency>
20

$$$$
>  <compound>
C#CCN1C(=O)N(c2ccc(F)c(F)c2)C(=O)C1c1ccc(O)cc1 (stereo not shown)

>  <KSchild (nM) potency>
48.99

$$$$
>  <compound>
CN1C(=O)N(c2ccc(Cl)c(Cl)c2)C(=O)C1c1ccc(O)cc1 (stereo not shown)

>  <KSchild (nM) potency>
2.67

$$$$
>  <compound>
CCOC(=O)CCN1C(=O)N(c2ccc(Cl)c(C(F)(F)F)c2)C(=O)C1c1ccc(O)cc1 (stereo not shown)

>  <KSchild (nM) potency>
94.87

$$$$
>  <compound>
CCOCCCN1C(=O)N(c2ccc(Cl)c(Cl)c2)C(=O)C1c1ccc(O)cc1 (stereo not shown)

>  <KSchild (nM) potency>
17.32

$$$$
>  <compound>
N#CCCN1C(=O)N(c2ccc(Cl)c(Cl)c2)C(=O)C1c1ccc(O)cc1 (stereo not shown)

>  <KSchild (nM) potency>
30

$$$$
>  <compound>
CCOC(=O)CCN1C(=O)N(c2ccc(F)c(Cl)c2)C(=O)C1c1ccc(O)cc1 (stereo not shown)

>  <KSchild (nM) potency>
69.28

$$$$
>  <compound>
Cc1cc(Br)ccc1N1C(=O)N(C)C(C)(c2ccc(O)cc2)C1=O (stereo not shown)

>  <KSchild (nM) potency>
10.63

$$$$
>  <compound>
CC1(c2ccc(O)cc2)C(=O)N(c2ccc(Cl)c(Cl)c2)C(=O)N1CC#CCO (stereo not shown)

>  <KSchild (nM) potency>
12.25

$$$$
>  <compound>
C=CCN1C(=O)N(c2ccc(Cl)c(Cl)c2)C(=O)C1(C)c1ccc(O)cc1 (stereo not shown)

>  <KSchild (nM) potency>
3

$$$$
>  <compound>
CCN1C(=O)N(c2ccc(C#N)c(C(F)(F)F)c2)C(=O)C1(C)c1ccc(O)cc1 (stereo not shown)

>  <KSchild (nM) potency>
2

$$$$
>  <compound>
N#CCCN1C(=O)N(c2ccc(F)c(Cl)c2)C(=O)C1c1ccc(O)cc1 (stereo not shown)

>  <KSchild (nM) potency>
212.13

$$$$
